Molecular target: T1, RRM1 analog F29A (Homo sapiens, UniProt Q8IUH3 23-202, F29A;F124A;Y165A)
T1 sequence: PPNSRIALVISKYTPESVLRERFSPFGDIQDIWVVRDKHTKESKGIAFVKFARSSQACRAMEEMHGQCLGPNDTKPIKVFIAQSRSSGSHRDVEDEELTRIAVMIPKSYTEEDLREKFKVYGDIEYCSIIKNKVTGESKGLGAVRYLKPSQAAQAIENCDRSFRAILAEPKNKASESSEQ
Assay: fluorescence polarization
OUTCOME_MEASURE: Kd (µM)
Response body: numeric value in µM, unit text excluded.

Query: Endpoint output: Kd of GGACGG (ssRNA) [GGACGG RNA] . Value?
Reply: 7.38
